// values below are reported growth
System: MALME-3M melanoma
TEST: NCI-60 one-dose screen, 48 h (100 = growth as untreated, 0 = no growth, -100 = all killed)
PROTOCOL_CONDITIONS: 10 µM unless noted
This is part of a sample that, as a whole, favours compounds with a hit. Of some 83,000 tested, about 20% had one in any assay.
Use % as the unit, but write only the number.

[[record]]
compound = "Cc1ccc(CSC2=C(Cl)CN(c3ccc(Cl)cc3)C2=O)cc1"
reading = 96.9

[[record]]
compound = "CC1(C)CC[C@]2(C(=O)NCCCCCCN(CCCN)CCCN)CC[C@]3(C)C(=CC[C@@H]4[C@@]5(C)CC[C@H](O)C(C)(C)[C@@H]5CC[C@]43C)[C@@H]2C1"
reading = 103

[[record]]
compound = "O=C(/C=C/c1cc(Cl)ccc1Cl)Nc1ncc(Cc2ccc(Cl)cc2)s1"
reading = 49


Given the compound "Nc1nc(=O)n([C@H]2C[C@H](O)[C@@H](CO)O2)cc1C=O" and test system MALME-3M melanoma, the measured growth is 114

Given the compound "Cc1ccccc1N1CCN(C2=C(Cl)C(=O)c3ncccc3C2=O)CC1" and test system MALME-3M melanoma, the measured growth is -14.5

Given the compound "C#CCOc1ccc(/C=N/Nc2nc(-c3ccc(OC)cc3)cs2)cc1" and test system MALME-3M melanoma, the measured growth is 83.9

Given the compound "Cc1csc(/N=C(N)/N=C(\N)c2cccnc2)n1" and test system MALME-3M melanoma, the measured growth is 60.7

Given the compound "O=C(N/N=C/c1cc2ccccc2nc1Cl)c1cc(-c2nc3ccccc3[nH]2)nc2ccccc12" and test system MALME-3M melanoma, the measured growth is 124

###

// values below are reported growth
System: HOP-62 NSCLC
TEST: NCI-60 one-dose screen, 48 h (100 = growth as untreated, 0 = no growth, -100 = all killed)
PROTOCOL_CONDITIONS: 10 µM unless noted
The panel holds about 83,000 compounds, 20% with a hit somewhere; the sample as a whole holds those more often.
Use % as the unit, but write only the number.

The value of growth measured for the compound "Cn1c2nc3ccccc3c-2cc2ccccc21" turned out to be 51.3

###

Test system: SF-268 CNS
TEST: NCI-60 one-dose screen, 48 h (100 = growth as untreated, 0 = no growth, -100 = all killed)
PROTOCOL_CONDITIONS: 10 µM unless noted
This is part of a sample that, as a whole, favours compounds with a hit. Of some 83,000 tested, about 20% had one in any assay.
PROPERTY_NAME: growth (%)
Use % as the unit, but write only the number.

The value of growth measured for the molecule "O=C(CCCCCCNC(=O)C(O)(O)C(F)(F)F)Nc1ncc(-c2ccc(Br)cc2)s1" turned out to be 1.89

The value of growth measured for the molecule "C#Cc1cc(OC)c(C(=O)Nc2ccc(F)cc2C(=O)Nc2cccc(S(=O)(=O)C(F)(F)F)c2)cn1" turned out to be -38.1

The value of growth measured for the molecule "CCCCCCN1C=C/C(=C\C(=O)n2ccc3ccccc32)c2ccccc21" turned out to be 80.9

The value of growth measured for the molecule "CCc1cc2c(cc1Cl)nc1c(=O)[nH]c(=O)nc-1n2CCOCC(C)(C)C" turned out to be 88.1

The value of growth measured for the molecule "CC1=C(C)C(=O)C(Nc2cccc(C(=O)OC(C)(C)C)c2)=CC1=O" turned out to be 80.5

The value of growth measured for the molecule CC(C)C(/C=C/c1[nH]ncc1-c1cc(Cl)ccc1O)N1CCOCC1 (stereo not given) turned out to be 88.5

The value of growth measured for the molecule "Cc1csc(/N=C(N)/N=C(\N)c2cccs2)n1" turned out to be 103

The value of growth measured for the molecule CC(O)c1cccc(/C(N)=N/C(N)=N/c2nc3ccccc3s2)c1 (stereo not given) turned out to be 94.3

The value of growth measured for the molecule "NCCNC(=O)c1cccc(COc2ccccc2NC(=O)c2cc(Br)c(Br)[nH]2)c1" turned out to be 61.9

The value of growth measured for the molecule "COc1ccc(/C=N/NC(=O)CSc2nc(-c3cnccn3)cc(-c3cccs3)c2C#N)cc1" turned out to be 83.5
